Let's look at some binders and their measured pIC50.
biological target: T1, HLA-DRB5*0101 molecule (human); test: competition ELISA vs biotin-HA 306-318
T1 chain 1: not shown
T1 chain 2: not shown
The value called pIC50 is obtained by taking minus log10 of the concentration in mol/L.

Sample TTLEQQYNKPLCDLL (modifications not checked) [E6 93-107] — what was its pIC50?
6.49

Sample RTLEDLLMGTLGIVC (modifications not checked) [E7 77-91] — what was its pIC50?
6.15

Sample HLDKKQRFHNIRGR (modifications not checked) [E6 124-138] — what was its pIC50?
7.12

The measured values listed here are drawn from patent US20040170644A1.
